Provenance of the data: the supplement of paper PMC12042874

ASSAY_INFO: amyloid nucleation score (Sup35N fusion, yeast selection) (log enrichment); library NNK1; higher = more nucleation; inactive = no reads after selection;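 also: zero at mode of non-aggregating sequences after 7 days selection at 30°C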
Threshold check on amyloid nucleation score: at or above 0.3 gives true, strictly below gives false.

substance=ANKLCSVKQQTPRLRWYMGS class_label=true
substance=LCDFLNAYEINGKFSCGGTR class_label=false
substance=LWCCMTLTIASNDFLNIRCM class_label=true
substance=KFNDDRNGIATLQRHHIAGF class_label=false
substance=IVLFSPFTW class_label=false
substance=CYDQKILLLLISVTYVRTSD class_label=false
substance=GLHREATSYLNRLFRINSG class_label=false
substance=VVFSWRIDSFGREEKGA class_label=true
substance=TFTFNACELCVPGLMCKEWN class_label=true
substance=GLCTTCF class_label=false
substance=VGLTARHKCWVGTCRGGPRT class_label=false
substance=SPAFPP class_label=true
substance=LSPHLPSESLGLGPMS class_label=false
substance=HLPGFNIVSYVQSESIMF class_label=false
substance=YTEETYKLCVWMSDRSIRLN class_label=false
substance=VQFLLYSGFVQTILMPKASR class_label=true
substance=FCNWAL class_label=false
substance=LRGVLMFMQVRDRADRGRSW class_label=false
substance=KTRFMLVLKLKRDNDLKMRF class_label=false
substance=YYTCSSETM class_label=true
substance=DWFSGLNRPRCIKLAQGGTG class_label=true
substance=RDSHSLMVVGFRYELSQGLK class_label=true
substance=EVYKHHYLA class_label=false
substance=FYSNWRYDGYWDDLGMNIIV class_label=false
substance=VSDYFG class_label=false
substance=IVSNAIIPTGEG class_label=false
substance=TRHWVIRQVSSTRDKYTKHA class_label=false
substance=HLMMTLFFVPVLMCITFTDG class_label=false
substance=GIGFFRCCLYRMFRYTRLSH class_label=true
